test system: Canis familiaris; assay: Heart rate (HR) in an acutely instrumented anesthetized dog model at 0.1 mg/kg intravenous dose; assay type: functional, Canis lupus familiaris
Tick label 1 if HR change from control is 20% or greater. Tick label 0 if HR change from control is less than 20%.

SMILES STR: Cc1nc(O)c(N)cc1-c1ccc(-n2ccnc2)cc1
GROUP LABEL: label 0
//
SMILES STR: Cc1c(-c2ccc(-n3ccnc3)cc2)cc(C#N)c(=O)n1C
GROUP LABEL: label 0
//
SMILES STR: Cc1[nH]c(=O)c(C#N)cc1-c1ccncc1
GROUP LABEL: label 1
//
SMILES STR: Cc1nc(O)ccc1-c1ccc(-n2ccnc2)cc1
GROUP LABEL: label 0
//
SMILES STR: Cc1c(-c2ccc(-n3ccnc3)cc2)cnc(O)c1C#N
GROUP LABEL: label 0
//
SMILES STR: Cc1nc(O)c(C#N)c(C)c1-c1ccc(-n2ccnc2)cc1
GROUP LABEL: label 0
//
SMILES STR: Cc1nc(O)c(C#N)cc1-c1ccc(-n2ccnc2)cc1
GROUP LABEL: label 1

----------
As shown below, each of these compounds has a reported Change from Control (LV dp/dt) value.
test system: Canis familiaris; assay: Myocardial contractility in an acutely instrumented anesthetized dog model at 1 mg/kg intravenous dose; assay type: functional, Canis lupus familiaris, Myocardium

COMPOUND: Cc1[nH]c(=O)c(C#N)cc1-c1ccncc1 [MILRINONE]
SYSTEM NAME: Canis familiaris
Change from Control (LV dp/dt) [%]: 148.5
//
COMPOUND: Cc1c(-c2ccc(-n3ccnc3)cc2)cc(C#N)c(=O)n1C
SYSTEM NAME: Canis familiaris
Change from Control (LV dp/dt) [%]: 39
//
COMPOUND: Cc1nc(O)c(N)cc1-c1ccc(-n2ccnc2)cc1
SYSTEM NAME: Canis familiaris
Change from Control (LV dp/dt) [%]: 105.5
//
COMPOUND: Cc1nc(O)ccc1-c1ccc(-n2ccnc2)cc1
SYSTEM NAME: Canis familiaris
Change from Control (LV dp/dt) [%]: 122
//
COMPOUND: Cc1c(-c2ccc(-n3ccnc3)cc2)cnc(O)c1C#N
SYSTEM NAME: Canis familiaris
Change from Control (LV dp/dt) [%]: 125.5
//
COMPOUND: Cc1nc(O)c(C#N)c(C)c1-c1ccc(-n2ccnc2)cc1
SYSTEM NAME: Canis familiaris
Change from Control (LV dp/dt) [%]: 135

----------
system: Canis familiaris; test: Mean arterial blood pressure (MABP) in an acutely instrumented anesthetized dog model at 0.01 mg/kg intravenous dose; type: functional, Canis lupus familiaris
As shown below, each of these compounds has a reported MABP change from control value.

COMPOUND: Cc1nc(O)ccc1-c1ccc(-n2ccnc2)cc1
VALUE UNITS: %
MABP change from control: -2.5
//
COMPOUND: Cc1c(-c2ccc(-n3ccnc3)cc2)cnc(O)c1C#N
VALUE UNITS: %
MABP change from control: 1.5
//
COMPOUND: Cc1nc(O)c(C#N)c(C)c1-c1ccc(-n2ccnc2)cc1
VALUE UNITS: %
MABP change from control: 0
//
COMPOUND: Cc1nc(O)c(N)cc1-c1ccc(-n2ccnc2)cc1
VALUE UNITS: %
MABP change from control: 0.5
//
COMPOUND: Cc1nc(O)c(C#N)cc1-c1ccc(-n2ccnc2)cc1
VALUE UNITS: %
MABP change from control: 0.75
//
COMPOUND: Cc1[nH]c(=O)c(C#N)cc1-c1ccncc1 [MILRINONE]
VALUE UNITS: %
MABP change from control: -2
//
COMPOUND: Cc1c(-c2ccc(-n3ccnc3)cc2)cc(C#N)c(=O)n1C
VALUE UNITS: %
MABP change from control: 2

----------
test system: Canis familiaris; experiment: Mean arterial blood pressure (MABP) in an acutely instrumented anesthetized dog model at 1 mg/kg intravenous dose; type: functional, Canis lupus familiaris
Tick t if MABP change from control is -30% or greater. Tick f if MABP change from control is less than -30%.

SMILES STR: Cc1nc(O)c(C#N)c(C)c1-c1ccc(-n2ccnc2)cc1
GROUP LABEL: f

SMILES STR: Cc1c(-c2ccc(-n3ccnc3)cc2)cc(C#N)c(=O)n1C
GROUP LABEL: t

SMILES STR: Cc1nc(O)c(N)cc1-c1ccc(-n2ccnc2)cc1
GROUP LABEL: t

SMILES STR: Cc1c(-c2ccc(-n3ccnc3)cc2)cnc(O)c1C#N
GROUP LABEL: t

SMILES STR: Cc1[nH]c(=O)c(C#N)cc1-c1ccncc1
GROUP LABEL: f

Origin of values: ChEMBL document CHEMBL1123756
